Source of measurements: paper PMC6851853

In this section, each of the compounds is paired with its reported kinact.
Target: DPAP3 (Plasmodium falciparum, UniProt Q8I1Y2)
Sequence (Q8I1Y2 entry or part of it): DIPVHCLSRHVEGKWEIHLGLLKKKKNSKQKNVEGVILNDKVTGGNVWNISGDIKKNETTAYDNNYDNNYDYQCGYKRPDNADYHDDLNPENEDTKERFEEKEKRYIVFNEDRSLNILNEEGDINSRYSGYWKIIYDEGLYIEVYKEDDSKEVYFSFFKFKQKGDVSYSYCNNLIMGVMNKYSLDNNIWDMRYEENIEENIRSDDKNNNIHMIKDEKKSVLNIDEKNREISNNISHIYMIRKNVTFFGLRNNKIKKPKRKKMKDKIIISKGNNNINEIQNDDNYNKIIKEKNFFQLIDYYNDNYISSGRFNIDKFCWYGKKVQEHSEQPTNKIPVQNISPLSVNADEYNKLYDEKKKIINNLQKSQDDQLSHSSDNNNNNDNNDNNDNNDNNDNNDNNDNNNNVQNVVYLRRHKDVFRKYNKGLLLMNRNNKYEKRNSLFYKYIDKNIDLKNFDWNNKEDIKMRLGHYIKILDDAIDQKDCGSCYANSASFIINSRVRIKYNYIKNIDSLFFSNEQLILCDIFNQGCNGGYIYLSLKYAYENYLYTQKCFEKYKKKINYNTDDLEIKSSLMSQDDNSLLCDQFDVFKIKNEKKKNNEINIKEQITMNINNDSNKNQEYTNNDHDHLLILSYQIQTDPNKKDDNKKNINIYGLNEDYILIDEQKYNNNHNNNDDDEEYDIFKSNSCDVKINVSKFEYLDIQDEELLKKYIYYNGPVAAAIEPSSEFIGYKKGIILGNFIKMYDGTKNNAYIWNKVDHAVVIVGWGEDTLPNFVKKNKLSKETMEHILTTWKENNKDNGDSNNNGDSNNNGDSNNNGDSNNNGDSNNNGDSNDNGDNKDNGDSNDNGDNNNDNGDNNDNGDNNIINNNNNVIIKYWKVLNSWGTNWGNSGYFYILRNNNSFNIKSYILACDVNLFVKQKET
Assay: biochemical
Parameters: gene PF3D7_0404700; recombinant, baculovirus/SF9 insect cells, purified from culture supernatant by ion exchange, Ni-NTA and size exclusion; active-site titrated; continuous fluorogenic assay, time-dependent inactivation of 0.2 nM recombinant DPAP3, Met-nLeu(o-Bzl)-ACC 2.2 uM
Settings: read-out: DPAP3 / k inact ·10^3
Numbers only; they are read as s⁻¹.

N[C@@H](Cc1ccc(O)c([N+](=O)[O-])c1)C(=O)N[C@H](C=CS(=O)(=O)c1ccccc1)CCc1ccccc1 :: 0.00226
N[C@H](Cc1c[nH]c2ccccc12)C(=O)N[C@H](/C=C/S(=O)(=O)c1ccccc1)CCc1ccccc1 :: 0.0017
N[C@@H](Cc1c[nH]c2ccccc12)C(=O)N[C@H](/C=C/S(=O)(=O)c1ccccc1)CCCCOCc1ccccc1 :: 0.0032

Would you kindly look at the next entry?
Query: Output measured kinact for this item: N[C@@H](Cc1ccc2ccccc2c1)C(=O)N[C@H](/C=C/S(=O)(=O)c1ccccc1)CCc1ccccc1
Result: 0.00259
